Reference for the values: patent US9725459B2

# measured.on: human cathepsin S (CatS) (Homo sapiens (Human))
# Sequence (P25774 115-331): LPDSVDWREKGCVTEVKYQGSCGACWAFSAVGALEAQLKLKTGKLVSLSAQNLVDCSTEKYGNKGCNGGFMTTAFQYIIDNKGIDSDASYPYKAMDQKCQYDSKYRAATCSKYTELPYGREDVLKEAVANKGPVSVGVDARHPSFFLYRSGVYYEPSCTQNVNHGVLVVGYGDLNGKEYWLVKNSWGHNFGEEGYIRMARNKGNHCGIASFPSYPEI
# protocol.text: CatS functional enzyme assay
# Assay type: biochemical
# details: ratio Ki(hCatS)/Ki(hCatK)
assay.endpoint: Selectivity Ki(hCatS)/Ki(hCatK)

I. O=C(N[C@H](C(=O)N1C[C@H](Cl)[C@H]2OCC(=O)[C@H]21)C1CCCCC1)c1cc(F)c(-c2cncnc2)s1 [Example 37]
II. COc1cc(-c2ccc(C(=O)N[C@H](C(=O)N3C[C@H](Cl)[C@H]4OCC(=O)[C@H]43)C3CCCCC3)s2)cnn1 [Example 71]
(Q) Which value of Selectivity Ki(hCatS)/Ki(hCatK) is smaller, the one for I or the one for II ? Answer with the label corresponding to your selection.
(A) II
